Tested on: MCF7 breast
Assay: NCI tumour cell line growth inhibition, 48 h; in the data active = GI50 below about 0.43 µM; inactive = the rest
Form entry, call: pick from Y = active, N = inactive

Exam item: Look up the recorded call for N#CCCNc1nonc1-c1nc2ccccc2n1CC(=O)c1ccc(N)cc1 in this test.
Marked response: Y

Exam item: Give the logged outcome of this assay for the following molecule: CNC(=O)Oc1cc(C(C)C)ccc1Sc1ccc(C(C)C)cc1OC(=O)NC
Marked response: N

Exam item: # lookup: test call for CC(C)=CCc1cc2c(cc1O)C1=C(C(=O)C3=C(NCCS3(=O)=O)C1=O)C(C=C(C)C)O2 (stereo not drawn)
Marked response: N

---

System: SF-539 CNS
Test: NCI tumour cell line growth inhibition, 48 h; in the data active = GI50 below about 0.43 µM; inactive = the rest
Write down one outcome, taken from yes (1) = active, no (0) = inactive

Exam item: Any idea what this test logged for C=CCC1(O)c2ccccc2C(=O)c2c(OCC(=O)OCC)ccc(OCC(=O)OCC)c21 (stereo not given) ?
Marked response: no (0)

Exam item: For O=C([CH-]C(=O)c1ccccc1)c1ccccc1.O=C([CH-]C(=O)c1ccccc1)c1ccccc1.O=C([CH-]C(=O)c1ccccc1)c1ccccc1.[Ga+3] , what call appears in the results of this test?
Marked response: no (0)

Exam item: Identify the outcome logged in this assay for the molecule shown: CCC(=C(c1ccc(OCCN2CCCCC2)cc1)c1ccc(OCCN2CCCCC2)cc1)c1ccc(Cl)cc1
Marked response: no (0)

Exam item: Hello, I am checking results. What call was entered for O=C(NCc1cn(Cc2cccc(Oc3ccccc3)c2)nn1)c1cccnc1Nc1ccc(F)cc1 ?
Marked response: no (0)

Exam item: # lookup: test call for O=[N+]([O-])c1ccc(C2=NCCO2)cc1
Marked response: no (0)

Exam item: Each molecule tested received a call. Report the one for O=C1C=C(Nc2ccccc2)c2ccccc2C1=O .
Marked response: no (0)

Exam item: For this molecule, state the assay outcome: COC(=O)[C@@H](C)C[C@H](Cc1ccccc1)NC(=O)c1nc([C@@H](C[C@H](C(C)C)N(C)C(=O)[C@@H](NC(=O)[C@H]2C[C@H](O)CCN2C)C(C)C)OC(C)=O)sc1C(C)C
Marked response: yes (1)

Exam item: Lab log entry: Cn1cc(-c2ccc3nc(-c4ccc(CC(=O)Nc5cc(C(C)(C)C)no5)cc4)cnc3c2)cn1 — outcome as called in the assay?
Marked response: yes (1)

Exam item: Check the results log: what was the call for CC[C@@]1(OP(=O)(O)O)C(=O)OCc2c1cc1n(c2=O)Cc2cc3ccccc3nc2-1 ?
Marked response: yes (1)

Exam item: Could you check what this test reported for CCCCn1c(=O)[nH]c(N)c([C@@H]2c3c([nH]c(=O)n(CCCC)c3=O)Oc3ccc4ccccc4c32)c1=O ?
Marked response: no (0)

Exam item: Status in this test for ClC1=C(Cl)C(Cl)(C2(Cl)C(Cl)=C(Cl)C(Cl)=C2Cl)C(Cl)=C1Cl ?
Marked response: no (0)

Exam item: Short answer needed: outcome of this test for Cc1cc(I)cc(CNCCN(C)C)c1O ?
Marked response: no (0)

Exam item: # fetch the recorded call for CCOc1ccc(N(C)c2ccc(/C=C/C3=[N+](C)c4ccccc4C3(C)C)cc2)cc1 here
Marked response: no (0)

Exam item: Look up the recorded call for N#CCCNc1nonc1-c1nc2ccccc2n1CC(=O)c1ccc(N)cc1 in this test.
Marked response: yes (1)

Exam item: For this molecule, state the assay outcome: O=S(=O)(NCCCNc1cc(-c2cn(-c3ccccc3)nc2-c2cccc(O)c2)ccn1)c1ccc(C(F)(F)F)cc1
Marked response: no (0)

These data points were gathered from PubChem BioAssay (NCI).
